- experimentalTarget: T1, hMC4-R (human, UniProt P32245 1-332)
- T1 construct: whole, on cells; Assayed as membranes of CHO-K1 cells expressing the receptor; also called hMC-R receptor subtype 4; melanocortin-4 (MC4-R)
- T1 sequence (P32245 whole entry): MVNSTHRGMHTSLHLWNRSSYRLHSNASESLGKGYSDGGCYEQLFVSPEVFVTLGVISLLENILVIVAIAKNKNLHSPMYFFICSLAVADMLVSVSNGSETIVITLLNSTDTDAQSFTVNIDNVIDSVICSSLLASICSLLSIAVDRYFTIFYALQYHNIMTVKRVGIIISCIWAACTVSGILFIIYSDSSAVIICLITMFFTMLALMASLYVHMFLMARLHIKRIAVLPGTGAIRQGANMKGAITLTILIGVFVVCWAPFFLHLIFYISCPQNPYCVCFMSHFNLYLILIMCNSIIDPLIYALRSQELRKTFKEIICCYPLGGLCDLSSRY
- assayInfo: competition with [125I]-NDP-α-MSH, CHO-K1 membranes
Bridge positions count the residues as written; N and C are the ends. Square brackets hold non-standard residues; d marks the D form. Cha = N[C@@H](CC1CCCCC1)C(=O)O; Nle = CCCC[C@H](N)C(=O)O; GABA = NCCCC(=O)O; βAla = NCCC(=O)O
quantityName: Ki (nM)
Please reply with the bare figure in nM and do not write the unit itself.

Recall and state the measured Ki for Ac-[Cha]DH[dF]RW[GABA]K-NH2 (lactam 2-8; SMILES CC(=O)N[C@@H](CC1CCCCC1)C(=O)N[C@H]1CC(=O)NCCCC[C@@H](C(N)=O)NC(=O)CCCNC(=O)[C@H](Cc2c[nH]c3ccccc23)NC(=O)[C@H](CCCNC(=N)N)NC(=O)[C@@H](Cc2ccccc2)NC(=O)[C@H](Cc2c[nH]cn2)NC1=O) [Ac-Cha-c(Asp-His-D-Phe-Arg-Trp-Gaba-Lys)-NH2] .
1.49

Recall and state the measured Ki for Ac-[Nle]C[dA]H[dF]RW[βAla]C-NH2 (disulfide 2-9) [Ac-Nle-c(Cys-D-Ala-His-D-Phe-Arg-Trp-β-Ala-Cys)-NH2] .
5.55

Recall and state the measured Ki for Ac-[Nle]CH[dF]R[dW][βAla]C-NH2 (disulfide 2-8; SMILES CCCC[C@H](NC(C)=O)C(=O)N[C@H]1CSSC[C@@H](C(N)=O)NC(=O)CCNC(=O)[C@@H](Cc2c[nH]c3ccccc23)NC(=O)[C@H](CCCNC(=N)N)NC(=O)[C@@H](Cc2ccccc2)NC(=O)[C@H](Cc2c[nH]cn2)NC1=O) [Ac-Nle-c(Cys-His-D-Phe-Arg-D-Trp-β-Ala-Cys)-NH2] .
1.96
